Source: PubChem BioAssay AID1053119

Assay: viability loss in A549 lung cancer cells – cell-based, cherry-picks, 26 µM top dose, cytotoxicity control, dose response (AID 1053119)
Details: CellTiter-Glo ATP luminescence, 72 h; series mostly up to 26 µM
Measured potencies and affinities stand elsewhere. Results filed as inconclusive are left out. Active and inactive are the calls of the source.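 Rule for the calls: active = signal loss from cell killing with fitted potency at or below twice the top valid dose; inconclusive = flat drop of 30 to 70%, or unreliable curve fit; inactive = opposite direction, flat within 30%, or weaker potency.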
measuredParameter: outcome

INSERT INTO results (compoundstructurestring, measuredparameter, recordedresult) VALUES
  ('O=C(Nc1ccccc1F)N1C[C@@H]2[C@H](c3ccccc31)[C@H](CO)N2C(=O)C1CC1', 'outcome', 'inactive'),
  ('C[C@H]1CN([C@@H](C)CO)C(=O)c2cc(NC(=O)C3CCCCC3)ccc2O[C@H]1CN(C)Cc1ccc(-c2ccccc2)cc1', 'outcome', 'inactive'),
  ('C[C@H]1CN([C@@H](C)CO)C(=O)c2cc(-c3ccccc3)cnc2O[C@H]1CN(C)C(=O)c1cccc(F)c1', 'outcome', 'inactive'),
  ('COc1ccc(-c2csc(CCn3nc(C)cc3C)n2)cc1OC', 'outcome', 'inactive'),
  ('C[C@H]1CN([C@@H](C)CO)C(=O)c2cc(NC(=O)CCCN(C)C)ccc2O[C@H]1CN(C)Cc1ccc(-c2ccccc2)cc1', 'outcome', 'inactive'),
  ('COc1cccc(-c2ccc3c(c2)[C@H]2[C@H](CCN2S(=O)(=O)c2cccc(OC)c2)[C@@H](CO)N3)c1', 'outcome', 'inactive'),
  ('C[C@H](O)C#Cc1ccc2c(c1)O[C@H](CN(C)C)[C@H](C)CN([C@@H](C)CO)S2(=O)=O', 'outcome', 'inactive'),
  ('O=C(Nc1ccccc1F)N1C[C@@H]2[C@H](c3ccccc31)[C@H](CO)N2C(=O)C1CCOCC1', 'outcome', 'inactive');
